Provenance of the data: ChEMBL document CHEMBL4177588

- assay_text: Half-life in human liver S9 fraction at 1 uM pretreated for 5 mins followed by NADPH/UDPGA/ PAPS addition by Q-TOF LC-MS/MS analysis
- Type: ADME, subcellular
// values below are reported half-life at 1 µM
Report the figure in min without appending any unit label.

In: // half-life at 1 µM lookup, key: O=C(/C=C/c1ccc(O)c(O)c1)NCc1ccc(C(F)(F)F)cc1
Out: 5

Next:
In: Need half-life at 1 µM, item FC(F)(F)c1ccc(CNc2nc(-c3ccc4c(c3)OCO4)cs2)cc1
Out: 69.3

---

Below, each entry is listed with its recorded log10 IC50.
- System: B16
- assay_text: Inhibition of alpha-MSH stimulated melanogenesis in mouse B16 cells
- Format: functional, cell-based
Heads up, the numbers here are log10 of IC50 in nM units.

Consider the reported log10 IC50 for these compounds:
In: Which log10 IC50 is listed for Clc1ccccc1CNc1nc(-c2ccc3c(c2)OCO3)cs1 ?
Out: 4.09

In: Requested field: log10 IC50. Item: Oc1ccc(-c2csc(NCc3ccccc3C(F)(F)F)n2)cc1O
Out: 3.41

In: Please look up its log10 IC50: FC(F)(F)c1ccc(CNc2nc(-c3ccc4c(c3)OCO4)cs2)cc1
Out: 2.95

Next:
In: Consider the compound shown here: Oc1ccc(-c2csc(NCc3ccc(Cl)cc3)n2)cc1O What is its recorded log10 IC50?
Out: 4.06

In: Data request, read-out log10 IC50, for Oc1ccc(-c2csc(NCc3ccccc3Cl)n2)cc1O
Out: 3.30

---

- System: B16
- assay_text: Inhibition of alpha-MSH stimulated melanogenesis in mouse B16 cells
- Type: functional, cell-based
# log10 of IC50 per record follows
Short version: log10 scale, IC50, µM.

Some solved cases for reference:
In: Requested read-out log10 of IC50, target or system B16, entry Clc1cccc(CNc2nc(-c3ccc4c(c3)OCO4)cs2)c1
Out: 1.12

In: B16 / log10 of IC50 / Oc1ccc(-c2csc(NCc3ccc(C(F)(F)F)cc3)n2)cc1O : value?
Out: 1.51

More entries:
In: Under B16: log10 of IC50 value of Oc1ccc(-c2csc(NCc3ccccc3)n2)cc1O ?
Out: 0.32

In: // lookup log10 of IC50 | system=B16 | key= Clc1ccc(CNc2nc(-c3ccc4c(c3)OCO4)cs2)cc1
Out: 1.58

---

Listing of entries alongside the reported pIC50.
- Test system: B16
- assay_text: Inhibition of alpha-MSH stimulated melanogenesis in mouse B16 cells
- Format: functional, cell-based
Just the number, please; pIC50 means minus log10 of the concentration in mol/L.

In: Field request: pIC50 | item: c1ccc(CNc2nc(-c3ccc4c(c3)OCO4)cs2)cc1
Out: 4.95

In: Param item = Oc1ccc(-c2csc(NCc3cccc(C(F)(F)F)c3)n2)cc1O ; retrieve measured pIC50.
Out: 5.74

In: Entry FC(F)(F)c1ccccc1CNc1nc(-c2ccc3c(c2)OCO3)cs1 : reported pIC50 = ?
Out: 5.02

New cases:
In: Which pIC50 value is on record for FC(F)(F)c1cccc(CNc2nc(-c3ccc4c(c3)OCO4)cs2)c1 ?
Out: 4.82
